target.system: TEAD2 YAP50-100 (Homo sapiens)
Sequence (Q15562 217-447): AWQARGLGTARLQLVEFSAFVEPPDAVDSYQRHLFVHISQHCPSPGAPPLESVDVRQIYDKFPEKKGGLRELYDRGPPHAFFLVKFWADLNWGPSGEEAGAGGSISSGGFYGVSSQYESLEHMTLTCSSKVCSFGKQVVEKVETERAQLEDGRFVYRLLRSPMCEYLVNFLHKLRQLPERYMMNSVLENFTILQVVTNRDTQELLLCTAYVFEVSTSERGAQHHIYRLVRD
assay.comment: TEAD2:YAP50-100 protein-protein interaction HTRF (TR-FRET) assay
conditions: His-tagged TEAD YAP binding domain (aa 217-447), biotinylated YAP peptide aa 50-100; 30 min pre-incubation, 60 min at room temperature; read-out: TEAD2 YAP50-100 HTRF WuXi EC50
List of EC50 values.
quantity.measured: EC50 (µM)

{"molecule": "CN(C)C(=O)c1cnn2c(=O)cc(-c3ccc(Oc4ccccc4)cc3)[nH]c12", "target.system": "TEAD2 YAP50-100 (Homo sapiens)", "quantity.measured": "EC50", "u": "µM", "reported.result": 0.501}
{"molecule": "CN(CCO)C(=O)c1cnn2c(=O)cc(-c3ccc(C4CCCCC4)cc3)[nH]c12", "target.system": "TEAD2 YAP50-100 (Homo sapiens)", "quantity.measured": "EC50", "u": "µM", "reported.result": 1.1}
{"molecule": "CCOC(=O)c1cnn2c(=O)cc(-c3ccc(C4CCCCC4)cc3)[nH]c12", "target.system": "TEAD2 YAP50-100 (Homo sapiens)", "quantity.measured": "EC50", "u": "µM", "reported.result": 0.066}
{"molecule": "CCOC(=O)c1cnn2c(=O)cc(-c3ccc(N4CCCCC4)cc3)[nH]c12", "target.system": "TEAD2 YAP50-100 (Homo sapiens)", "quantity.measured": "EC50", "u": "µM", "reported.result": 7.35}
{"molecule": "CCOC(=O)c1cnn2c(=O)cc(-c3ccc(OC4CCCCC4)cc3)[nH]c12", "target.system": "TEAD2 YAP50-100 (Homo sapiens)", "quantity.measured": "EC50", "u": "µM", "reported.result": 0.793}
{"molecule": "CN(C)C(=O)c1cnn2c(=O)cc(-c3ccc(C4CCCC4(C)C)cc3)[nH]c12 (single isomer, unassigned) [Example 21]", "target.system": "TEAD2 YAP50-100 (Homo sapiens)", "quantity.measured": "EC50", "u": "µM", "reported.result": 0.22}
{"molecule": "O=C(c1cnn2c(=O)cc(-c3ccc(C4CCCCC4)cc3)[nH]c12)N1CC(O)C1", "target.system": "TEAD2 YAP50-100 (Homo sapiens)", "quantity.measured": "EC50", "u": "µM", "reported.result": 0.548}
{"molecule": "CN(C)C(=O)c1cnn2c(=O)cc(-c3ccc(C4CCCC4)cc3)[nH]c12", "target.system": "TEAD2 YAP50-100 (Homo sapiens)", "quantity.measured": "EC50", "u": "µM", "reported.result": 0.342}

====

target.system: TEAD3 YAP50-100 (Homo sapiens, UniProt Q99594)
Sequence (Q99594 216-435 limits assumed): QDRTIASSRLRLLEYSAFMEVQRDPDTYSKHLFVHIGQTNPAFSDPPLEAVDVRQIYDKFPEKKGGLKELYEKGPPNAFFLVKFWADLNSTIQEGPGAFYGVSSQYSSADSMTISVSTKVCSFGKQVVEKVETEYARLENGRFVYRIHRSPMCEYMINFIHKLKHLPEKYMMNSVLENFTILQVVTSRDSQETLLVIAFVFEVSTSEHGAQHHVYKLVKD
assay.comment: TEAD3:YAP50-100 protein-protein interaction HTRF (TR-FRET) assay
conditions: His-tagged TEAD YAP binding domain (aa 217-447), biotinylated YAP peptide aa 50-100; 30 min pre-incubation, 60 min at room temperature; read-out: TEAD3 YAP50-100 HTRF WuXi EC50
Method: Purified His-tagged TEAD protein (YAP Binding Domain, amino acids 217-447) is pre-incubated with Europium labelled anti-His antibody tracer (Perkin Elmer Cat #AD0110). […] After 60 minutes, the plate is read on a plate reader using TR-FRET mode with wavelengths of 665 nm/615 nm. […] The potency of compounds as YAP:TEAD protein-protein interaction (PPi) inhibitors is determined by an IC50 or EC50 value generated using a non-linear four parameter curve fit.
quantity.measured: log10 of EC50 (log10 of the value in µM)

{"compound": "O=C(c1cnn2c(=O)cc(-c3ccc(C4CCCCC4)cc3)[nH]c12)N1CC(F)(F)C1", "log10 of EC50": -1.25}
{"compound": "CN(C)C(=O)c1cnn2c(=O)cc(-c3ccc(C4CCCC4(C)C)cc3)[nH]c12 (single isomer, unassigned) [Example 21]", "log10 of EC50": -1.68}
{"compound": "CCOC(=O)c1cnn2c(=O)cc(-c3ccc(C4CCCCC4)cc3)[nH]c12", "log10 of EC50": -1.72}
{"compound": "CCOC(=O)c1c(C(C)C)nn2c(=O)cc(-c3ccc(Oc4ccccc4)cc3)[nH]c12", "log10 of EC50": -0.91}
{"compound": "O=C(c1cnn2c(=O)cc(-c3ccc(-c4ccccc4)cc3)[nH]c12)N1CCC1", "log10 of EC50": -1.02}
{"compound": "CCOC(=O)c1cnn2c(=O)cc(-c3ccc(C(F)(F)F)c(C)c3)[nH]c12", "log10 of EC50": 0.15}
{"compound": "N#CC1CN(C(=O)c2cnn3c(=O)cc(-c4ccc(C5CCCCC5)cc4)[nH]c23)C1", "log10 of EC50": -1.89}
{"compound": "CCOC(=O)c1cnn2c(=O)cc(-c3ccc(N(C)CC4CC4)cc3)[nH]c12", "log10 of EC50": -0.76}

====

target.system: TEAD3 YAP50-100 (Homo sapiens, UniProt Q99594)
assay.comment: TEAD3:YAP50-100 protein-protein interaction HTRF (TR-FRET) assay
conditions: His-tagged TEAD YAP binding domain (aa 217-447), biotinylated YAP peptide aa 50-100; 30 min pre-incubation, 60 min at room temperature; read-out: TEAD3 YAP50-100 HTRF WuXi EC50
Procedure: Purified His-tagged TEAD protein (YAP Binding Domain, amino acids 217-447) is pre-incubated with Europium labelled anti-His antibody tracer (Perkin Elmer Cat #AD0110). […] After 60 minutes, the plate is read on a plate reader using TR-FRET mode with wavelengths of 665 nm/615 nm. […] The potency of compounds as YAP:TEAD protein-protein interaction (PPi) inhibitors is determined by an IC50 or EC50 value generated using a non-linear four parameter curve fit.
Examples of molecules with documented EC50 follow.

{"molecule": "CCNC(=O)c1cnn2c(=O)cc(-c3ccc(C(F)(F)F)cc3)[nH]c12 [Example 24]", "target.system": "TEAD3 YAP50-100 (Homo sapiens, UniProt Q99594)", "EC50 [nM]": 4380}
{"molecule": "C[C@@H]1[C@H](CF)CN1C(=O)c1cnn2c(=O)cc(-c3ccc(C4CCCCC4)cc3)[nH]c12 (single isomer, unassigned) [Example 46]", "target.system": "TEAD3 YAP50-100 (Homo sapiens, UniProt Q99594)", "EC50 [nM]": 3100}
{"molecule": "CCOC(=O)c1cnn2c(=O)cc(-c3ccc(C(C)(C)C)cc3)[nH]c12 [Example 30]", "target.system": "TEAD3 YAP50-100 (Homo sapiens, UniProt Q99594)", "EC50 [nM]": 95}
{"molecule": "CCOC(=O)c1cnn2c(=O)cc(-c3ccc(C(F)(F)F)cc3)[nH]c12 [Example 23]", "target.system": "TEAD3 YAP50-100 (Homo sapiens, UniProt Q99594)", "EC50 [nM]": 834}
{"molecule": "CN(C)C(=O)c1cnn2c(=O)cc(-c3ccc(C4CCC4)cc3)[nH]c12 [Example 36]", "target.system": "TEAD3 YAP50-100 (Homo sapiens, UniProt Q99594)", "EC50 [nM]": 28}
{"molecule": "CNC(=O)c1cnn2c(=O)cc(-c3ccc(C(F)(F)F)cc3)[nH]c12 [Example 25]", "target.system": "TEAD3 YAP50-100 (Homo sapiens, UniProt Q99594)", "EC50 [nM]": 10400}
{"molecule": "O=C(NC1CC1)c1cnn2c(=O)cc(-c3ccc(C(F)(F)F)cc3)[nH]c12 [Example 27]", "target.system": "TEAD3 YAP50-100 (Homo sapiens, UniProt Q99594)", "EC50 [nM]": 3510}
{"molecule": "CN(CCO)C(=O)c1cnn2c(=O)cc(-c3ccc(C4CCCCC4)cc3)[nH]c12 [Example 5]", "target.system": "TEAD3 YAP50-100 (Homo sapiens, UniProt Q99594)", "EC50 [nM]": 567}

====

target.system: TEAD2 YAP50-100 (Homo sapiens)
assay.comment: TEAD2:YAP50-100 protein-protein interaction HTRF (TR-FRET) assay
conditions: His-tagged TEAD YAP binding domain (aa 217-447), biotinylated YAP peptide aa 50-100; 30 min pre-incubation, 60 min at room temperature; read-out: TEAD2 YAP50-100 HTRF WuXi EC50
The class of a record is decided solely by its measured EC50; consult lowest = under 200 nM, middle = from 200 nM up to 800 nM, highest = 800 nM and over

{"compound": "CC1(O)CN(C(=O)c2cnn3c(=O)cc(-c4ccc(C5CCCCC5)cc4)[nH]c23)C1 [Example 9]", "label": "middle"}
{"compound": "CCOC(=O)c1cnn2c(=O)cc(-c3ccc(C(F)(F)F)c(C)c3)[nH]c12 [Example 26]", "label": "highest"}
{"compound": "O=C(NC1CC1)c1cnn2c(=O)cc(-c3ccc(C(F)(F)F)cc3)[nH]c12 [Example 27]", "label": "middle"}
{"compound": "CCOC(=O)c1cnn2c(=O)cc(-c3ccc(C4CCC(F)(F)CC4)cc3)[nH]c12 [Example 1]", "label": "middle"}
{"compound": "CNC(=O)c1cnn2c(=O)cc(-c3ccc(C(F)(F)F)cc3)[nH]c12 [Example 25]", "label": "middle"}
{"compound": "O=C(c1cnn2c(=O)cc(-c3ccc(C4CCCCC4)cc3)[nH]c12)N1CCC1 [Example 8]", "label": "lowest"}
{"compound": "CN(C)C(=O)c1cnn2c(=O)cc(-c3ccc(C4CCCC4(C)C)cc3)[nH]c12 (single isomer, unassigned) [Example 22]", "label": "middle"}
{"compound": "CCOC(=O)c1cnn2c(=O)cc(-c3ccc(C4(c5ccccc5)CC4)cc3)[nH]c12 [Example 33]", "label": "highest"}
{"compound": "CCOC(=O)c1cnn2c(=O)cc(-c3ccc(C4CCCC4(C)C)cc3)[nH]c12 (single isomer, unassigned) [Example 19]", "label": "middle"}
{"compound": "CC1(F)CN(C(=O)c2cnn3c(=O)cc(-c4ccc(C5CCCCC5)cc4)[nH]c23)C1 [Example 40]", "label": "lowest"}
{"compound": "CN(C)C(=O)c1cnn2c(=O)cc(-c3ccc(C4CCC4)cc3)[nH]c12 [Example 36]", "label": "highest"}
{"compound": "N#CC1CN(C(=O)c2cnn3c(=O)cc(-c4ccc(C5CCCCC5)cc4)[nH]c23)C1 [Example 44]", "label": "lowest"}
{"compound": "CCOC(=O)c1cnn2c(=O)cc(-c3ccc(C(C)(C)C)cc3)[nH]c12 [Example 30]", "label": "highest"}
{"compound": "CCOC(=O)c1cnn2c(=O)cc(-c3ccc(-c4ccccc4)cc3)[nH]c12 [Example 34]", "label": "highest"}
{"compound": "C[C@@H]1[C@H](CF)CN1C(=O)c1cnn2c(=O)cc(-c3ccc(C4CCCCC4)cc3)[nH]c12 (single isomer, unassigned) [Example 46]", "label": "middle"}
{"compound": "CCNC(=O)c1cnn2c(=O)cc(-c3ccc(Oc4ccccc4)cc3)[nH]c12 [Example 17]", "label": "lowest"}
{"compound": "O=C(c1cnn2c(=O)cc(-c3ccc(C4CCCCC4)cc3)[nH]c12)N1CC(F)(F)C1 [Example 12]", "label": "lowest"}
{"compound": "CCOC(=O)c1cnn2c(=O)cc(-c3ccc(C(F)(F)F)cc3)[nH]c12 [Example 23]", "label": "highest"}
{"compound": "CCOC(=O)c1cnn2c(=O)cc(-c3ccc(C4CCCC4)cc3)[nH]c12 [Example 2]", "label": "lowest"}
{"compound": "CCOC(=O)c1c(C(C)C)nn2c(=O)cc(-c3ccc(Oc4ccccc4)cc3)[nH]c12 [Example 29]", "label": "middle"}
{"compound": "CCOC(=O)c1c(C)nn2c(=O)cc(-c3ccc(Oc4ccccc4)cc3)[nH]c12 [Example 28]", "label": "highest"}
{"compound": "O=C(c1cnn2c(=O)cc(-c3ccc(C4CCCCC4)cc3)[nH]c12)N1CC(C(F)F)C1 [Example 38]", "label": "lowest"}

These entries and their values trace back to patent US20210238184A1.
